Data provenance is the RNAGym collection of RNA variant scans (doi:10.1073/pnas.2313332121).

B1: TPR 5TU (parent)
chain: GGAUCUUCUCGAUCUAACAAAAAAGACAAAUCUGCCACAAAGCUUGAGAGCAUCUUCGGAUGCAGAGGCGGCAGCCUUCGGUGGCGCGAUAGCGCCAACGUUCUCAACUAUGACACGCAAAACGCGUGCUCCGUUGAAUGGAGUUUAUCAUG

- Variants of: B1
- Test Method Notes: polymerase ribozyme fitness, log enrichment relative to wild type (log ratio); higher = more active; in vitro selection for triplet polymerase activity
This sample holds only a part of the variants without activity.
Kindly supply the reported polymerase ribozyme fitness (log ratio) values for the records listed here.
Give bare numbers.

// solved cases for polymerase ribozyme fitness (log ratio) follow
1. C123A G140A: -3.65
2. A12C A98G: -0.18
3. U78C C87U G92A A115U: -2.33
4. A52U U78C U102C: -2.88
5. A89U G143U: -2.38

Would you mind giving polymerase ribozyme fitness (log ratio) for every variant in the list below?
1. A17U C95U
2. A20G C57U G62C G136U
3. U53A U56A G152A
4. C57G C96G U145A
5. G50A G83A A97G
6. G83U A98C C123U C125U C129A

Result:
1: -0.895; 2: -3.44; 3: -4; 4: -0.71; 5: -0.838; 6: -3.47

Would you mind giving polymerase ribozyme fitness (log ratio) for every variant in the list below?
1. U82G G141U
2. G50A A115G
3. A19U U55A G59U
4. C96U C105A C116G
5. A47U C75U
6. A22C A52C G81U

Result:
1.45
-2.49
0.528
-1.79
-1.41
-1.38

Would you mind giving polymerase ribozyme fitness (log ratio) for every variant in the list below?
1. A49U A52C
2. A22G A110G
3. C76A C85U G140C

Result:
[-0.692, -3.28, -3.97]

Would you mind giving polymerase ribozyme fitness (log ratio) for every variant in the list below?
1. C14G C36U U45G G59A C95U A97G A98U C125A U139G
2. U55A C87U
3. G11C G46C C57U C85U
4. A22G G83C A98U C114U

Result:
-4.03
-1.1
-3.93
-3.19

Would you mind giving polymerase ribozyme fitness (log ratio) for every variant in the list below?
1. A49C C51G
2. A12C A52C C54U U145A
3. A40C A119C

Result:
[-4.14, -3.53, 0.851]

Would you mind giving polymerase ribozyme fitness (log ratio) for every variant in the list below?
1. C32G G42C A49U G94C C95A G126A
2. U55A C96A G136C
3. G65A C85U A97U
4. C51U A73G G92U G124A
5. U56A G58C G92U C93A C118A
6. C96U A115G G136U A142G

Result:
1: -3.97; 2: -3.78; 3: -2.46; 4: -0.37; 5: -3.82; 6: -3.69

Would you mind giving polymerase ribozyme fitness (log ratio) for every variant in the list below?
1. U15G A21U C85U A121U A138G
2. G48A C57U G83C U101C
3. A16G C57A

Result:
-4.04
-2.63
-0.592

Would you mind giving polymerase ribozyme fitness (log ratio) for every variant in the list below?
1. U56G U146G
2. A21C C116U

Result:
-3.46
0.668
